These entries and their values trace back to patent US12559545.

Target: T1, HeV-G
T1 chain: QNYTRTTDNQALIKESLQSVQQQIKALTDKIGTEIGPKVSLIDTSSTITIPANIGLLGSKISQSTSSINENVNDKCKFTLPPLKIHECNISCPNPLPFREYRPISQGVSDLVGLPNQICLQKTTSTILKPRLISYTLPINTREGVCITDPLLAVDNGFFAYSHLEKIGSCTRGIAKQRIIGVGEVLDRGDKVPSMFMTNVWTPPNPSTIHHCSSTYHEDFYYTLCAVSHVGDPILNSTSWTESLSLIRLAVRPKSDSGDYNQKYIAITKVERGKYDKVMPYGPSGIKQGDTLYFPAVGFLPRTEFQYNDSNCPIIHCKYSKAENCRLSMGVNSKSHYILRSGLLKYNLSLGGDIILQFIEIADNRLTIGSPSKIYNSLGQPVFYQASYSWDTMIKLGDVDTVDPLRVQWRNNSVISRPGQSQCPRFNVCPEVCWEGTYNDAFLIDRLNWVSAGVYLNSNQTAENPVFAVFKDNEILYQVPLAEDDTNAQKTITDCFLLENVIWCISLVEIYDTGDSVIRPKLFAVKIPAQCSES
assay endpoint: EC50
# output: numeric value plus its unit

HENV-103 (antibody, V domains shown) VH: QVQLQGSGPGLVKPSQTLSLTCSVSGGSVSRSGYYWGWIRQHPGKGLECIGYIYYSGITYYNPSLSGRLTISVDTSKNQFSLELSSVTAADTAVYYCARVWLGGGVFDFWGQGSLVTVSS VL: EIVMTQSPATLSVSPGEGATLSCRASQSVSSNLAWYQQKPGQAPRLLIYDASTRATGIPARFSGSGSGTEFTLTISSLQSEDFAVYYCQQYNDWRTFGRGTKVEMR : 0.806 nM

Input line: Which measured EC50 value corresponds to HENV-99 (antibody, V domains shown) VH: QVLLVQSGAEVRKPGASVKVSCRASGYTFTDYYMHWVRQAPGQGLEWMGWINPNSGATKYAQKFQGRVTLTRDTSINTAYMELSGLRSVDTAVFYCASVPPSGFFYWGSDYWGQGTLVTVSS VL: DVVLTQSPLSLPVTLGQPASISCRSSQSLVYSDGTTYLNWFQQRPGQSPRRLIYKVSYRDSGVPDRFSGSGSGTDFTLEISRVEAEDVGIYYCMHGTHWETWTFGQGTKVEIK ?
Output line: 0.42 nM
